Tested on: P388 leukemia ip, CD2F1 mice, survival T/C
Test: NCI In Vivo Anticancer Drug Screen. Data for tumor model P388 Leukemia (intraperitoneal) in CD2F1 (CDF1) mice
Settings: endpoint: median survival time; dose: 6.25 mg/kg/injection; schedule: Q01DX009 (ip); vehicle: water
Experimental: The antitumor activity of compounds was measured in mice bearing transplantable tumors. Survival or tumor size were measured and the results are expressed as the measurement made in the treated group (T) divided by the measurement made in the vehicle treated control group (C). The tumor model used in this assay is P388 Leukemia (intraperitoneal) in CD2F1 (CDF1) mice
Toxic doses and inconclusive results are not listed. The calls were made as follows: active = survival T/C of 150% or more; inactive = T/C below 125% in these data.
# output must be one of Y for active, N for inactive

{"columns": ["Compound", "Target or test system", "Label value"],
 "data": [
  ["COc1cc2cnccc2cc1O", "P388 leukemia ip, CD2F1 mice, survival T/C", "N"],
  ["O=NNc1ccc([N+](=O)[O-])cn1", "P388 leukemia ip, CD2F1 mice, survival T/C", "N"],
  ["COc1cccc2c1C(=O)c1c(O)c3c(c(O)c1C2=O)CC(O)CC3OC1CC(N)C(O)C(C)O1 (centres undefined)", "P388 leukemia ip, CD2F1 mice, survival T/C", "Y"]
]}

Ask | Test call, this compound: O=NNc1ccc(Oc2ccc(NN=O)cc2)cc1
Reply | N

###

Test system: P388 leukemia ip, CD2F1 mice, survival T/C
Test: NCI In Vivo Anticancer Drug Screen. Data for tumor model P388 Leukemia (intraperitoneal) in CD2F1 (CDF1) mice
Conditions: endpoint: median survival time; dose: 50.0 mg/kg/injection; schedule: Q01DX009 (ip); vehicle: saline; higher = longer survival
Toxic doses and inconclusive results are not listed.
Parameter: T/C

Ask | Tell me T/C reported for O=C1/C(=C/c2ccccn2)CCc2ccccc21
Reply | 102 % of control

Ask | Tell me T/C reported for CCCCCCCCCCCCCC#CC(=O)OC
Reply | 104 % of control

###

System: P388 leukemia ip, CD2F1 mice, survival T/C
Assay: NCI In Vivo Anticancer Drug Screen. Data for tumor model P388 Leukemia (intraperitoneal) in CD2F1 (CDF1) mice
Conditions: endpoint: median survival time; dose: 200.0 mg/kg/injection; schedule: Q04DX002 (ip); vehicle: saline; higher = longer survival
Toxic doses and inconclusive results are not listed.
Parameter: T/C

Recorded T/C, per entry:
{"columns": ["Chemical smiles", "Target or test system", "Parameter", "Result"],
 "data": [
  ["C[n+]1cccc(/C=N/O)c1", "P388 leukemia ip, CD2F1 mice, survival T/C", "T/C", "100 % of control"],
  ["CCc1ccccc1C1(Br)C(=O)c2ccccc2C1=O", "P388 leukemia ip, CD2F1 mice, survival T/C", "T/C", "100 % of control"],
  ["CCc1cc(C=C2C(=O)c3ccccc3C2=O)cc(CC)c1O", "P388 leukemia ip, CD2F1 mice, survival T/C", "T/C", "99 % of control"]
]}

Could you now consider this next compound?
Ask | Tell me T/C reported for CN(C)CCN(C)CCN1C(=O)c2ccccc2C1=O
Reply | 100 % of control

###

Test system: P388 leukemia ip, CD2F1 mice, survival T/C
Experiment: NCI In Vivo Anticancer Drug Screen. Data for tumor model P388 Leukemia (intraperitoneal) in CD2F1 (CDF1) mice
Settings: endpoint: median survival time; dose: 12.5 mg/kg/injection; schedule: Q01DX005 (ip); vehicle: Klucel (hydroxypropylcellulose) (HPC); higher = longer survival
Inconclusive results and toxic doses are left out.
Parameter: T/C

Recorded T/C, per entry:
{"columns": ["Chemical smiles", "Result"],
 "data": [
  ["COc1cccc(/C=N/Nc2cc(C)nc3cc4c(cc23)OCO4)c1", "97 % of control"],
  ["COc1ccc2c(C)cc(NN)nc2c1", "103 % of control"],
  ["O=C(O)c1cccc2c1-c1ccccc1C2=O", "94 % of control"],
  ["O=C(CCCN1CCN(c2cc3ccccc3cn2)CC1)c1ccc(F)cc1", "109 % of control"]
]}

Ask | Tell me T/C reported for CN(C)c1ncnc2nc(Cl)[nH]c12
Reply | 112 % of control

###

System: P388 leukemia ip, CD2F1 mice, survival T/C
Assay: NCI In Vivo Anticancer Drug Screen. Data for tumor model P388 Leukemia (intraperitoneal) in CD2F1 (CDF1) mice
Conditions: endpoint: median survival time; dose: 100.0 mg/kg/injection; schedule: Q01DX005 (ip); vehicle: Klucel (hydroxypropylcellulose) (HPC); higher = longer survival
Toxic doses and inconclusive results are not listed. Square brackets hold non-standard residues; d marks the D form. Peptide text beside a SMILES is read from it. * marks the point of attachment. Cbz = O=C(OCc1ccccc1)*; Nva = CCC[CH](N)C(=O)O
This section presents compounds with their documented T/C values.

Recorded T/C, per entry:
{"columns": ["Compound", "Result"],
 "data": [
  ["O=C1C(Cl)=C(NC(=O)C2CCCCC2)C(=O)C(Cl)=C1NC(=O)C1CCCCC1", "88 % of control"],
  ["CC(C)[C@@H](C)/C=C/[C@@H](C)[C@H]1CC[C@@H]2[C@]1(C)CC[C@H]1[C@]23C=C[C@]2(C[C@@H](O)CC[C@]12C)OO3", "86 % of control"],
  ["CCCC(NC(=O)OCc1ccccc1)C(=O)NC(CO)C(=O)O (stereo not drawn) (Cbz-[Nva]-Ser-OH; configuration not given here)", "108 % of control"]
]}

Ask | Tell me T/C reported for Cc1nc2c(Cl)cccc2c2ccccc12
Reply | 92 % of control

Ask | Tell me T/C reported for CCN(CCO)CCc1cccc2ccccc12
Reply | 99 % of control

Ask | Tell me T/C reported for CC1SC2(C(=O)N(CN3CCCCC3)c3ccccc32)N(c2ccccc2)C1=O (stereo not drawn)
Reply | 100 % of control

Ask | Tell me T/C reported for CC[As](CC)SC(CC[C@@H](C)C1CC[C@@]2(C)C3=C(CC[C@]12C)[C@@]1(C)CC[C@H](O)C(C)(C)[C@@H]1CC3)C(C)C (stereo partly drawn)
Reply | 92 % of control

Ask | Tell me T/C reported for CCN(CC)C(=Nc1ccc(NC(=O)c2ccc(C(=O)Nc3ccc(N=C(c4ccccc4)N(CC)CC)cc3)cc2)cc1)c1ccccc1
Reply | 97 % of control

###

System: P388 leukemia ip, CD2F1 mice, survival T/C
Assay: NCI In Vivo Anticancer Drug Screen. Data for tumor model P388 Leukemia (intraperitoneal) in CD2F1 (CDF1) mice
Settings: endpoint: median survival time; dose: 100.0 mg/kg/injection; schedule: Q01DX005 (ip); vehicle: saline with Tween-80; higher = longer survival
Experimental: The antitumor activity of compounds was measured in mice bearing transplantable tumors. Survival or tumor size were measured and the results are expressed as the measurement made in the treated group (T) divided by the measurement made in the vehicle treated control group (C). The tumor model used in this assay is P388 Leukemia (intraperitoneal) in CD2F1 (CDF1) mice
Toxic doses and inconclusive results are not listed.
This section presents molecules with their documented T/C values.

Recorded T/C, per entry:
{"columns": ["Molecule", "Parameter", "Result"],
 "data": [
  ["O=C(O)c1cc2ccc3cccc4ccc(c1)c2c34", "T/C", "102 % of control"],
  ["SC1CCCN(Cc2ccccc2)C1 (configuration not stated)", "T/C", "108 % of control"],
  ["COc1cc([N+](=O)[O-])ccc1C(=O)Nc1c2ccccc2nc2ccccc12", "T/C", "92 % of control"],
  ["O=C(O)/C(Cl)=C(\\Cl)C(=O)Nc1ccccc1C(F)(F)F", "T/C", "103 % of control"]
]}

Ask | Tell me T/C reported for Cc1cc(OP2(=O)Nc3cccc4cccc(c34)N2)ccc1Cl
Reply | 89 % of control

Ask | Tell me T/C reported for O=C(O)CCC(Nc1ncnc2nc[nH]c12)C(=O)O (configuration not stated)
Reply | 97 % of control

Ask | Tell me T/C reported for CC(NC(=O)C(Cc1c[nH]c2ccccc12)NC(=O)OCc1ccccc1)C(=O)O (configuration not stated)
Reply | 103 % of control

Ask | Tell me T/C reported for Cc1ccc(N2[C@H]3CCCN3c3ccc(C)cc3[C@@H]2C(F)(F)F)cc1
Reply | 100 % of control

Ask | Tell me T/C reported for O=C1CSC(c2cccc(Cl)c2)N1CCN1C(=O)CSC1c1cccc(Cl)c1 (configuration not stated)
Reply | 93 % of control

Ask | Tell me T/C reported for C[C@]12CC[C@@H]3c4ccc(O)c(N)c4CC[C@H]3[C@@H]1CC[C@@H]2O
Reply | 90 % of control

Ask | Tell me T/C reported for CCOC(=O)c1ccccc1N
Reply | 99 % of control

Ask | Tell me T/C reported for Cc1noc(NC(=O)Nc2ccccc2F)c1C#N
Reply | 100 % of control
